biological target: furin, P09958; assay: furin cleavage Z-score vs untreated control; higher = more cleavage, active = 3.5 or more, inactive = 1 or less, 8 variable residues between constant flanks; conditions: 30 min;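 further: purified furin at 1:10 enzyme:substrate in 50 mM HEPES pH 7.5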
Sequence (P09958 whole entry): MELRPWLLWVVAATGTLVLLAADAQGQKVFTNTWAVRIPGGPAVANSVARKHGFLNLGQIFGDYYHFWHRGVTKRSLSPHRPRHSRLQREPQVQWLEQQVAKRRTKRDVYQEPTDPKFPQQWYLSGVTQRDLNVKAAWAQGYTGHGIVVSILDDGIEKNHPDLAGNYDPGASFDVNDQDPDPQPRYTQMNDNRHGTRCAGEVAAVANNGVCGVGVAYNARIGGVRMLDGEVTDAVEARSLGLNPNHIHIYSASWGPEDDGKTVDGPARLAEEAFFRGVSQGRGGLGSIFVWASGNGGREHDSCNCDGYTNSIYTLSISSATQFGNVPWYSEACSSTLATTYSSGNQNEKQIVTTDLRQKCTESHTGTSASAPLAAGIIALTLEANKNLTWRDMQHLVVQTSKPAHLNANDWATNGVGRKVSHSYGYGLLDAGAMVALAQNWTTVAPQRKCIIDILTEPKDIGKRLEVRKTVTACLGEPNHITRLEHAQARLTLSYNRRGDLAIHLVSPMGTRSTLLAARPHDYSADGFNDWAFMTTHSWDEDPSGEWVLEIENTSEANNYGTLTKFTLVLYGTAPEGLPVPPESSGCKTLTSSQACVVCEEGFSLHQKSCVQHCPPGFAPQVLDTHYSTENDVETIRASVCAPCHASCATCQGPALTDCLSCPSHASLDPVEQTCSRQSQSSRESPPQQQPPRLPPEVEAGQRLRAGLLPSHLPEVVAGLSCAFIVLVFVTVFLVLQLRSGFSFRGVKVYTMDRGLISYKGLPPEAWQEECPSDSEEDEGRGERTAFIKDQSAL
The list shows a part of the results. The true hit rate is not given.
Measured attribute: furin cleavage Z-score
Form: value (number only, do not type unit).

Some sequences with known furin cleavage Z-score results, for comparison:
>>> readout_value("CARHRRVNGTAGNASASA [FS-2492]")
-0.55
>>> readout_value("CASHHRHRRGAGNASASA [FS-1410]")
9.31
>>> readout_value("CARKKRNGLTAGNASASA [FS-2155]")
6.82
>>> readout_value("CAVHSRASRDAGNASASA [FS-205]")
4.81
>>> readout_value("CARALRLVDGAGNASASA [FS-2410]")
-0.629

## Input Could you share which furin cleavage Z-score value was measured for CATERLYVGGAGNASASA [HC1499] ?
## Output -0.694

## Input Proceed to CARQKKADEPAGNASASA [FS-3033]
## Output -1.07

## Input Proceed to CARKKKLVSTAGNASASA [FS-2560]
## Output -1.46

## Input Proceed to CARKRRLVAPAGNASASA [FS-2216]
## Output 5.53

## Input Proceed to CAVGSSIASWAGNASASA [HC513]
## Output 1.42

## Input Proceed to CAVVFCSMSYAGNASASA [HC2027]
## Output -0.194

## Input Proceed to CATTECSGSWAGNASASA [HC1872]
## Output -0.721

## Input Proceed to CAESYSSMPPAGNASASA [HC1352]
## Output -0.906

## Input Proceed to CAKTRRSVDGAGNASASA [FS-2248]
## Output 5.86

## Input Proceed to CARQKRDANSAGNASASA [FS-2506]
## Output 11.1
